Kindly supply the reported pIC50 values for the records listed here.
- testedTarget: MAGL (recombinant wild-type) (Homo sapiens (Human), UniProt Q99685)
- Sequence (Q99685 whole entry, species assumed): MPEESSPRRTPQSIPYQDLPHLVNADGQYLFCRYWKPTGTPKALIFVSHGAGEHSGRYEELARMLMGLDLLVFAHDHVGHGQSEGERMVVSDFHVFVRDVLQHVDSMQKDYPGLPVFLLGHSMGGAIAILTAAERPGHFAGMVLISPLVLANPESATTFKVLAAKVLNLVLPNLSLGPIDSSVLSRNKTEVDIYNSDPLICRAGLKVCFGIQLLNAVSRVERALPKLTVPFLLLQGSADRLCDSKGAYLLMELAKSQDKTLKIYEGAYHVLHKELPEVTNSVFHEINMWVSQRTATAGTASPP
- methodSummary: 4-NPA assay: MAGL inhibitory activity by hydrolysis of 4-nitrophenylacetate (absorbance at 405 nm)
- experimentalConditions: measured in 4-NPA assay (footnote [a]); 1 nM MAGL, 300 μM 4-nitrophenylacetate
Numbers only, as −log10 of the molar value.

Please review the following examples before continuing.
- molecularString: "O=C1CO[C@H]2CCN(C(=O)N3CC(OCc4ccc(C(F)(F)F)cc4)C3)C[C@H]2N1"
  pIC50: 8.10
- molecularString: "O=C1CO[C@@H]2CCN(C(=O)N3CCC(COc4ccc(F)cc4F)CC3)C[C@@H]2N1"
  pIC50: 6.44
- molecularString: "O=C1CO[C@H]2CCN(C(=O)N3CCC(Cc4ccc(C(F)(F)F)cc4N4CCCC4)CC3)C[C@H]2N1"
  pIC50: 8.22

As a next step, examine the compound that follows.
Look up pIC50: `O=C1CO[C@H]2CCN(C(=O)N3CC(COCc4c(F)cccc4C(F)(F)F)C3)C[C@H]2N1`
7.66
